- System: 926638-142-R-J1-PDC complex spheroid viability
- Assay Remarks: Anticancer human tumor 926638-142-R-J1-PDC patient-derived endometrial carcinoma cell line growth inhibition [POLQ]
- Setup Conditions: second compound 0.316 µM; first compound 0.0316 µM; active compounds read low
- Experimental: Multicellular complex tumor spheroid response to Polymerase (POL) inhibitors (novobiocin, ART-558, RP6685) in combination with a variety of drugs and investigational agents in selected tumor cell lines The POL inhibitors (novobiocin, ART-558, and RP6685) were evaluated both individually and in combination with standard of care and investigational anticancer small molecules within a complex spheroid model of solid tumors. . […]
The following compounds are shown together with reported viability, T/C values.

| Compound | viability, T/C [%] |
| --- | --- |
| CNCc1ccc(-c2[nH]c3cc(F)cc4c3c2CCNC4=O)cc1 + Cc1cccc(N(C)C(=O)C2C(O)CCN2c2nc(C)cc(C(F)(F)F)c2C#N)c1 | 104 |
| O=C(c1cc(Cc2n[nH]c(=O)c3ccccc23)ccc1F)N1CCN(C(=O)C2CC2)CC1 + Nc1ccc(C#CCN(C(=O)Cc2ncc(C(F)(F)F)cc2C(F)(F)F)c2ccc(F)cc2)nn1 | 100 |
| CCc1cc2c(N3CCc4c(cc(Cn5ccnc5)cc4-c4cn(C)nc4C(F)(F)F)C3=O)cc(C)nc2c(OC)n1 + Cc1cccc(N(C)C(=O)C2C(O)CCN2c2nc(C)cc(C(F)(F)F)c2C#N)c1 | 94.8 |
| CNCc1ccc(-c2[nH]c3cc(F)cc4c3c2CCNC4=O)cc1 + COC1C(OC(N)=O)C(O)C(Oc2ccc3c(O)c(NC(=O)c4ccc(O)c(CC=C(C)C)c4)c(=O)oc3c2C)OC1(C)C | 90.5 |
| CC[C@@]1(O)C(=O)OCc2c1cc1n(c2=O)Cc2cc3c(CN(C)C)c(O)ccc3nc2-1 + Nc1ccc(C#CCN(C(=O)Cc2ncc(C(F)(F)F)cc2C(F)(F)F)c2ccc(F)cc2)nn1 | 64.1 |

----------
Listed below: viability, T/C values for each entry.
- Tested on: 926638-142-R-J1-PDC complex spheroid viability
- Assay Remarks: Anticancer human tumor 926638-142-R-J1-PDC cell line growth inhibition [POLQ];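 note: spheroids exposed to drugs for one week before readout; percent viability relative to DMSO vehicle control wells set as 100%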
- Setup Conditions: second compound 10 µM; first compound 0.316 µM; active compounds read low

| Compound | viability, T/C / % |
| --- | --- |
| O=C(Nc1ccc(O)c(NS(=O)(=O)c2ccc(F)cc2)c1)c1ccc(-c2ccccc2)cc1 + Nc1ccc(C#CCN(C(=O)Cc2ncc(C(F)(F)F)cc2C(F)(F)F)c2ccc(F)cc2)nn1 | 89.5 |
| O=c1[nH]cc(F)c(=O)[nH]1 + Nc1ccc(C#CCN(C(=O)Cc2ncc(C(F)(F)F)cc2C(F)(F)F)c2ccc(F)cc2)nn1 | 93.2 |
| COc1cc(C2c3cc4c(cc3C(OC3OC5COC(C)OC5C(O)C3O)C3COC(=O)C23)OCO4)cc(OC)c1O (stereo not given) + COC1C(OC(N)=O)C(O)C(Oc2ccc3c(O)c(NC(=O)c4ccc(O)c(CC=C(C)C)c4)c(=O)oc3c2C)OC1(C)C | 78.1 |
| C#Cc1c(F)ccc2cc(O)cc(-c3ncc4c(N5CC6CCC(C5)N6)nc(OCC56CCCN5CC(F)C6)nc4c3F)c12 (stereo not given) + Nc1ccc(C#CCN(C(=O)Cc2ncc(C(F)(F)F)cc2C(F)(F)F)c2ccc(F)cc2)nn1 | 80 |
| CC1COCCN1c1cc(C2(S(C)(=N)=O)CC2)nc(-c2ccnc3[nH]ccc23)n1 (stereo not given) + Nc1ccc(C#CCN(C(=O)Cc2ncc(C(F)(F)F)cc2C(F)(F)F)c2ccc(F)cc2)nn1 | 87.9 |
